Tested on: MS2 coat protein
METHOD NOTES: apparent KD of MS2 coat protein, switch OFF state (with FMN for OFF switches, without FMN for ON switches); designed switch direction (-1 OFF switch, 1 ON switch): -1; higher = weaker reporter binding
EXPERIMENTAL CONTEXT: FMN input: 0 or 200 uM; Eterna round: R93 (includes R88 designs)
MEASURED ATTRIBUTE: apparent KD of MS2 coat protein

Example results:
{"columns": ["SEQUENCE STRING", "apparent KD of MS2 coat protein"],
 "data": [
  ["AACUGACAUGAGGAUCACCCAUGUCAGGAUAUGAUUUGACGAAAUAAAUAAAGUCAUAUCAGAAGGGACAUGGA [Design 80: Sub-opt U]", "50.4 nM"],
  ["AACAGUACAGGAUAUACAUGAGGAUCACCCAUGUGAGCAUUAAAAGGCGUACCUCAAAGUAGAAGGGUACUGGA [JL Maslow Revisted mod 23]", "18.9 nM"],
  ["AUAAAGUCAGGAUAUGUAAAAAUAACGAAAGUUAUAAAUAAACAGAAGGGACAUGAGGAUCACCCAUGUGGAAU [Meechl MS2 EX4 62% 3]", "75 nM"],
  ["AAAAAGUGAGGAUAUACGCUGAGGAGUAGACACAACCAGGCGUAGAAGGCACAUGAGGAUCACCCAUGUCCAAA [EX4 Malc#11]", "39.8 nM"],
  ["AACAUACAUGAGGAUCACCCAUGUCAGGAUAUGCCGGGUUAGAGCCAACUGAAAAAACGUAGAAGGGACGAAAA [Bilbo Confounded 7 - Jieux - Exclusion 1]", "90.3 nM"],
  ["AAAAUACAUGAGGAUCACCCAUGUGAGGAUAUGCGAAUAAAAAUAAAAUAAAAUAAAAGCAGAAGGCACGAAAA [EX 1 May 24]", "32.8 nM"],
  ["AGUGAGUCAGGAUAUUAGUGAAGAAUAAAAGAAAUAACAACUAAGAAGGGACAUGAGGAUCACCCAUGUACACA [May 58]", "20.9 nM"]
]}

Query: apparent KD of MS2 coat protein; subject: AAGGGACAUGAGGAUCACCCAUGUUAGGAUAUGCUAUGGAAAAUAAAAAUAAAACAUAGCAGAAGGAACAAAAA [Denovo 8] 61.8 nM

----------
Test system: K4 kissing-loop RNA reporter
METHOD NOTES: apparent KD of K4 kissing-loop reporter; higher = weaker reporter binding
EXPERIMENTAL CONTEXT: Eterna round: R107; input ligand: tryptophan 2.4 mM
MEASURED ATTRIBUTE: apparent KD of K4 kissing-loop reporter (nM)
Lab book: enter the figure in nM, no units written.

Example results:
{"columns": ["SEQUENCE STRING", "EXPERIMENTAL SYSTEM", "MEASURED ATTRIBUTE", "RESULT VALUE"],
 "data": [
  ["CCAACGUGAAAAGGAUAUCGCGAUGUGCACGACUAGUGAUGUUAGGAGAGGCUCGUUGAAUUGUACCGAGAAGGUUUUGAGUGGG [theeternabot_sameState_KL_FMN_B_16]", "K4 kissing-loop RNA reporter", "apparent KD of K4 kissing-loop reporter", 196],
  ["UAAUCCUAGUGAUAAUAAUCAAGUGGUGGGCGAGGACCGGUACGGCCGCCACUCGAAAAUGCAGUGAUGUUGUAAUCCGGAUAAU [Exclusion - Tryptophan A (Freestyle 5)]", "K4 kissing-loop RNA reporter", "apparent KD of K4 kissing-loop reporter", 450],
  ["GAUUCCCAAGCGGCCGCCACUUAUAGUGAUGUUAUAGGGACUGCGGAUCAGGACAAUCAUACAUAAAGGACCGGGCUAUUCUGAC [theeternabot_exclusion_KL_Trp_B_1]", "K4 kissing-loop RNA reporter", "apparent KD of K4 kissing-loop reporter", 261],
  ["AGACUACUGAUAGGAUAUAACAUCCUAGUCGUAUACCGAAAGGUAUACGAUUCCCUUCUAGUGAUGUUAGAAGGGUCGGUAGUCA [Omei KL FMN B Exc B v12]", "K4 kissing-loop RNA reporter", "apparent KD of K4 kissing-loop reporter", 78.9],
  ["GUUACGCAUGGAAGGAGCGCUCUCAUACUUAAUAACACAGUGAUGUUGUGAAUUUGUAUAAAGCAGGUAGGUCGCCAUGUGUAAC [Ex Arginine B K4 7]", "K4 kissing-loop RNA reporter", "apparent KD of K4 kissing-loop reporter", 346]
]}

Query: apparent KD of K4 kissing-loop reporter; subject: AAGCAGUCCCUUGUUGUCAUCGAAGAUGAACGAGGACCGGUACGGCCGCCACUCGGAGUGAUGUUCCGAUGGCUGCAAAAUAAAA [MatMod 21 - Jieux - Exclusion - Tryptophan A] 108

Query: apparent KD of K4 kissing-loop reporter; subject: UCCCGAGUGAUGUUUGGCUGAUGGAGUGAUACCAGUCCCUAGACUGACCCUUGGCAGCACGACUUGUACCAGGCGGAUCACCCUG [theeternabot_exclusion_KL_Theo_A_5] 366

Query: apparent KD of K4 kissing-loop reporter; subject: UGUAAGUGUCAGCGAGUGAUGUUCGACGAUACCAGACUCGAUAGAGUCCCUUGGCAGCGUAAUGCAUGCCAAACUGGCACAUACU [#SwitchBubble 11 #K4Early] 434

----------
Test system: K4 kissing-loop RNA reporter;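 note: bound reporter read as fluorescence of individual clusters on recovered sequencing chips by microscopy, with normalized cluster intensities fitted with a binding model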
METHOD NOTES: apparent KD of K4 kissing-loop reporter; higher = weaker reporter binding
EXPERIMENTAL CONTEXT: Eterna round: R107; input ligand: FMN 200 uM
MEASURED ATTRIBUTE: apparent KD of K4 kissing-loop reporter (nM)
Lab book: enter the figure in nM, no units written.

Example results:
{"columns": ["SEQUENCE STRING", "apparent KD of K4 kissing-loop reporter (nM)"],
 "data": [
  ["GGGCGUGGCGCGGCCGCCACUGGGCCUGGGCGCUCGCUGAGUGAUGUUCGUCGGCGGCUGGGUCGUAGGACCGGGUGCUGGUUGG [BDazzled - #7 SS Tryptophan B]", 529],
  ["GCCGUACGCAUGGAUACCAGUCUUAGAGUGAUGUUCUAAACGAUUGCGCCUGGAUCAAUGGACCCUUGGCAGCCAUGCGUACGGC", 130],
  ["GGAUAGGACAGAGGAUAUGGUAGUGAUGUUACCAACAGCCUACUGUCAAUAAAGACGGUUGGCUGACCAGAAGGCUGUCCUAUCG [Mod of Eli's FmnBX 26 v1]", 564],
  ["CCUAGUGAUGUUAGGUCGUGCUCCUAUGAUACCAGCGUAGUCACUCGCCCUUGGCAGCAUUCCUUAUAAGGCGGUCGGGCGCGGU [theeternabot_sameState_KL_Theo_A_34]", 218]
]}

Query: apparent KD of K4 kissing-loop reporter; subject: GGCGGCCGCGCGAAAGCGCGGCCGGCCGAUACCAGCGCGACGGCGCGCCCUUGGCAGCGGCGCCGAGUGAUGUUCGGCCUGCCGU [#2 Same State - Theophylline A Attempt #13 (HarryS)] 126

Query: apparent KD of K4 kissing-loop reporter; subject: AUGUCUGAUAGCAGUGAUGUUGCUUCAGAUACCAGACGAGAUCAUGUCCCUUGGCAGCUGACACGGCACGUGCUAGGUUAGAUGA [whbob_Ex_Theo_A_th71] 117

----------
Tested on: MS2 coat protein
METHOD NOTES: apparent KD of MS2 coat protein; higher = weaker reporter binding
EXPERIMENTAL CONTEXT: Eterna round: R107; input ligand: tryptophan 2.4 mM
Is apparent KD of MS2 coat protein at least 30 nM? Then MET. If not, NOT MET.

Please review the following examples before continuing.
{"columns": ["SEQUENCE STRING", "CLASSIFICATION"],
 "data": [
  ["CUGCUACAUGAGGAUCACCCAUGUGGAGAUACCAGCCUGAACGAUGGCCCUUGGCAGCUCUUAGCUGGUGAUCAUAUAUUUCAGA [Zazaat]", "NOT MET"],
  ["AACUAAUCACAUGAGGAUCACCCAUGUGAUACCAGCUAAUCCCAAAGCCCUUGGCAGCACCUUUGGGUCCCGGUGUGUUUGAACA [Onceesa]", "NOT MET"],
  ["AGACAUGAGGAUCACCCAUGUAGUAUGGAUACCAGAUCCAGAUUUAUCCCUUGGCAGCUGUGGUACAGCGUUGCAACGCUCCUAG [Exclusion - Theophylline A (Freestyle 14)]", "MET"],
  ["AAUAACAUGAGGAUCACCCAUGUAAAAGAUACCAGAGUGAUGAUCCUCCCUUGGCAGCUUAACGCUGAUUGGAAACAAUCAGCGA [Mat - Same State Theophlline A - Mod of Eli - D1]", "MET"],
  ["UGUGCAUGAGUUGGAAAAGCUCAUGGGCAUCGAGGACCGGUACGGCCGCCACUCGGCUGUACAUGAGGAUCACCCAUGUCAGGGU [#1 Same State - Tryptophan A Attempt #23 (HarryS)]", "MET"]
]}

Hi, just wondering whether UGUCGCAGGUUAGAUACCAGCGAGGCGCGGGUAAAUGUUCACAUGAGGAUCACCCAUGUUCGCCCUUGGCAGCUAGUAGGCAUAA [theeternabot_exclusion_MS2_Theo_B_36] shows apparent KD of MS2 coat protein of 30 nM or higher. NOT MET

Hi, just wondering whether AGCAGUACAACAGAUACCAGACUUUUAAUGCCUCUAAUUACAUGAGGAUCACCCAUGUUUGUCCCUUGGCAGCUGUUGUACUGCA [JR_ExcTheophyB_Sub010] shows apparent KD of MS2 coat protein of 30 nM or higher. MET

Hi, just wondering whether UUGGAUGAAGGAGUGAAAAGCAACUCAGAUACCAGUCUGAGUAAUGACCCUUGGCAGCUGAGAACAUGAGGAUCACCCAUGUGAC [theeternabot_exclusion_MS2_Theo_A_34] shows apparent KD of MS2 coat protein of 30 nM or higher. NOT MET

Hi, just wondering whether AGCUCAUAGAGUGAUACCAGACUACAUGAGGAUCACCCAUGUUUCUUUUGGUUAUCAUGUGUCCCUUGGCAGCACAAGAAGAGCA [JR_ExcTheophyB_Sub015] shows apparent KD of MS2 coat protein of 30 nM or higher. NOT MET
